Molecular target: human Bradykinin B1 receptor (Homo sapiens)
Construct: host or cells: CHO-K1
Sequence (P46663 1-353): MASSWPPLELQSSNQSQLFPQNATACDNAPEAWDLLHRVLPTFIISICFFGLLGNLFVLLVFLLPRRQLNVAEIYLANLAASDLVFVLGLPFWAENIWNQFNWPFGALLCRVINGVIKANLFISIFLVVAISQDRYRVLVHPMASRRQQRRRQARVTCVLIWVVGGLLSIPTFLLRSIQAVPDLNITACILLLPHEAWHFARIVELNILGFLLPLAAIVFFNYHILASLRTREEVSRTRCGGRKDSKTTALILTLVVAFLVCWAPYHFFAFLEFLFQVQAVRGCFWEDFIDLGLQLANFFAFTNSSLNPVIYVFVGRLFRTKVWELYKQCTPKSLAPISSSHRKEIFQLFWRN
Test: Calcium flux Assay (FLIPR) with recombinant CHO-K1 cells expressing human Bradykinin B1 receptor, in presence (hB1 IC50) or absence (hB1 free IC50) of 0.1% BSA
Type: cell-based
Details: in absence of 0.1% BSA, read-out: hB1 free IC50
recordedMetric: pIC50
// pIC50 here means minus log10 of the molar concentration (mol/L)

// known answers, use as guide
{"columns": ["structure", "testedSystem", "quantitativeReadout"],
 "data": [
  ["CN1CCN(c2ccc(-c3ccc(NC(=O)C4(c5cccc(Cl)c5)CC4)cc3-c3nnn[nH]3)cc2)CC1", "human Bradykinin B1 receptor (Homo sapiens)", 6.85],
  ["Cc1cc(-c2ccc(NC(=O)C3(c4cccc(Cl)c4)CC3)cc2-c2nnn[nH]2)ccn1", "human Bradykinin B1 receptor (Homo sapiens)", 6.88]
]}

// switching to the query molecule
Kindly note the recorded pIC50 for O=C(Nc1ccc(-n2ccc(CC(F)(F)F)n2)c(-c2nnn[nH]2)c1)C1(c2cccc(Cl)c2)CC1 , which is 6.84
